run-conditions: in DMSO, 333.15 K
measured-property: solubility (mole fraction)
// keep it numeric: no unit symbol after the value

So what's the measured solubility (mole fraction) for this one? CC(C)(C)c1ccc(-c2nnc(-c3ccc(-c4ccccc4)cc3)o2)cc1 0.0187

* * *

run-conditions: in methanol, 283.15 K
measured-property: solubility (mole fraction)
// keep it numeric: no unit symbol after the value

So what's the measured solubility (mole fraction) for this one? CC(C)(C)c1ccc(-c2nnc(-c3ccc(-c4ccccc4)cc3)o2)cc1 0.000412

* * *

run-conditions: in THF, 323.15 K
measured-property: solubility (mole fraction)
// keep it numeric: no unit symbol after the value

So what's the measured solubility (mole fraction) for this one? CC(C)(C)c1ccc(-c2nnc(-c3ccc(-c4ccccc4)cc3)o2)cc1 0.0817
